B1: Far upstream element-binding protein 1, residues 98 to 169; numbered along this chain, Q96AE4 (parent)
chain: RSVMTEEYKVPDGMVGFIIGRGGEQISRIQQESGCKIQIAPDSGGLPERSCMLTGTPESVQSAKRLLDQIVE

- Variants of: B1
- protocol_description: abundance fitness (aPCA) (normalised: wild type 0, dead -1); higher = more abundant; growth selection in yeast, the domain comes from the species named
- measurement_setup: Homo sapiens
Use T when the recorded abundance fitness is no lower than -0.06; use F when it is lower.

[
  {
    "variant": "G13T",
    "class_name": "T"
  },
  {
    "variant": "P11Y",
    "class_name": "F"
  },
  {
    "variant": "K9D",
    "class_name": "F"
  },
  {
    "variant": "S50R",
    "class_name": "T"
  },
  {
    "variant": "I19L",
    "class_name": "T"
  },
  {
    "variant": "R1L",
    "class_name": "F"
  },
  {
    "variant": "K36F",
    "class_name": "T"
  },
  {
    "variant": "E7T",
    "class_name": "T"
  },
  {
    "variant": "E72D",
    "class_name": "T"
  },
  {
    "variant": "E24A",
    "class_name": "T"
  },
  {
    "variant": "I19S",
    "class_name": "T"
  },
  {
    "variant": "C35G",
    "class_name": "F"
  },
  {
    "variant": "S59F",
    "class_name": "F"
  },
  {
    "variant": "T5C",
    "class_name": "F"
  },
  {
    "variant": "S59G",
    "class_name": "T"
  },
  {
    "variant": "S50K",
    "class_name": "T"
  },
  {
    "variant": "G22W",
    "class_name": "F"
  },
  {
    "variant": "G16N",
    "class_name": "T"
  },
  {
    "variant": "R49D",
    "class_name": "F"
  },
  {
    "variant": "P41D",
    "class_name": "T"
  },
  {
    "variant": "T5P",
    "class_name": "F"
  },
  {
    "variant": "Q61N",
    "class_name": "T"
  },
  {
    "variant": "D42I",
    "class_name": "F"
  },
  {
    "variant": "G20T",
    "class_name": "F"
  },
  {
    "variant": "G23F",
    "class_name": "F"
  },
  {
    "variant": "Q69P",
    "class_name": "F"
  },
  {
    "variant": "E72V",
    "class_name": "T"
  },
  {
    "variant": "Y8R",
    "class_name": "F"
  },
  {
    "variant": "G44Q",
    "class_name": "T"
  },
  {
    "variant": "S43I",
    "class_name": "T"
  },
  {
    "variant": "I26M",
    "class_name": "F"
  },
  {
    "variant": "F17V",
    "class_name": "T"
  }
]
